Test system: SK-MEL-28
PROTOCOL_SUMMARY: NCI tumour cell line growth inhibition, 48 h
Calls of active or inactive are those of the source. Cut-off read from the data, not from the text of the source: active = GI50 up to about 1.1 µM and inactive = higher.
MEASURED_PROPERTY: GI50

- COMPOUND: "CCOC(=O)C1=CC(C)(C(=O)OCC)Nc2c(nc(N)[nH]c2=O)N1 (stereo not drawn)"
  REPORTED_VALUE: "> 10 µM (inactive)"
- COMPOUND: "O=C1C[C@H](Sc2ccccc2)C2(OCCO2)[C@H]2ON3CCC[C@@H]3[C@@H]12"
  REPORTED_VALUE: "2.49 µM (inactive)"
- COMPOUND: "O=C(O)c1ccc([Se][Se]c2ccc(C(=O)O)cc2)cc1"
  REPORTED_VALUE: "20.7 µM (inactive)"
- COMPOUND: "O=C1CN(c2ccc(Cl)cc2)C(=O)CN1NCNN1CC(=O)N(c2ccc(Cl)cc2)CC1=O"
  REPORTED_VALUE: "> 100 µM (inactive)"
- COMPOUND: "CCCP1(=O)C=C(C)C(=C(Cl)Cl)C(C)=C1 (stereo not drawn)"
  REPORTED_VALUE: "44.1 µM (inactive)"
- COMPOUND: "C=CCN1C(N)=C(C(N)=O)S/C1=C1/SC(=S)N(c2ccc(C)cc2)C1=O"
  REPORTED_VALUE: "> 100 µM (inactive)"
- COMPOUND: "COc1cccc(N/C(C)=C2/CCOC2=O)c1"
  REPORTED_VALUE: "> 10 µM (inactive)"
- COMPOUND: "O=C1c2cccnc2S(=O)(=O)N1c1ccc(Oc2ccccc2)cc1"
  REPORTED_VALUE: "> 100 µM (inactive)"

----------
Tested on: HCT-15

- COMPOUND: "COc1cc2oc(=O)cc(C)c2cc1O"
  GI50: "> 100 µM"
- COMPOUND: "NC(=O)NCCCC(NC(=O)OCCCCCn1ccc(=O)[nH]c1=O)C(=O)O (stereo not drawn)"
  GI50: "> 100 µM"
- COMPOUND: "COc1cc(C(C#N)NNC(=O)Cc2ccccc2)cc(OC)c1OC (stereo not drawn)"
  GI50: "> 100 µM"

----------
Test system: SF-539
PROTOCOL_SUMMARY: NCI tumour cell line growth inhibition, 48 h
The source made the active and inactive calls. Rule as the data show it: active = GI50 up to about 1.1 µM and inactive = higher.
Reported values of GI50 for individual entries

- MOLECULE: "CN(C)c1cccc(-c2cc(O)c3ccccc3n2)c1"
  GI50: "30.4 µM (inactive)"
- MOLECULE: "COc1cc(CCNC2=CC(=O)c3cccnc3C2=O)ccc1O"
  GI50: "1.59 µM (inactive)"
- MOLECULE: "CC(C)(C)CI"
  GI50: "88.5 µM (inactive)"
- MOLECULE: "COC(=O)c1cncc2c1CC1C3(C(=O)OC)C=NC(C4C(CO)=CCC43)C21C (stereo not drawn)"
  GI50: "> 100 µM (inactive)"
- MOLECULE: "CCOC(=O)COc1ccc(OCC(=O)OCC)c2c1C(=O)CCCC2=O"
  GI50: "> 100 µM (inactive)"
- MOLECULE: "Cc1cc(Cl)ccc1NC1=NC(=O)C(CC(=O)Nc2ccc(Cl)cc2Cl)S1 (stereo not drawn)"
  GI50: "> 100 µM (inactive)"
- MOLECULE: "Cc1nnc2c3nnc(C)n3c3ccccc3n12"
  GI50: "> 100 µM (inactive)"
- MOLECULE: "CC1(C)CCCC2(C)[C@@H]1CC[C@]13C[C@](C)(CC[C@@H]21)[C@@H]3CO (stereo partly drawn)"
  GI50: "> 100 µM (inactive)"
